# Target Or System: V1a (h) (Homo sapiens, UniProt P37288)
# Construct: purchased Eurofins Cerep (SafetyScreen44), recognised from the panel format
# Sequence (P37288 whole entry): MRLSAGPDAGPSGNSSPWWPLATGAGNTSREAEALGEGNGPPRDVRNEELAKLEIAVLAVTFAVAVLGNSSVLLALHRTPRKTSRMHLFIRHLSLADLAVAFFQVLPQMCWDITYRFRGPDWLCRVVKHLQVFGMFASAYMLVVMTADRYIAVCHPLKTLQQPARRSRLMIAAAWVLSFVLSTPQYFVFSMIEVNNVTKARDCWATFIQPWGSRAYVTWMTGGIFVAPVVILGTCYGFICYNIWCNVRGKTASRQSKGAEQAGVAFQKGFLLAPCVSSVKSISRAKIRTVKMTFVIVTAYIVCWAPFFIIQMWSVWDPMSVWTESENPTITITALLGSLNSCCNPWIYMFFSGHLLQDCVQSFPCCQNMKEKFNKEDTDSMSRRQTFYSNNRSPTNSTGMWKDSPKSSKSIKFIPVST
# Experimental Details: In vitro CEREP profiling, V1a (h) (agonist radioligand)
# Type: binding
# Condition Set: test compound concentration 10 uM
Some compounds, each annotated with its measured perc_inhibition (% inhibition of the binding of a ligand specific for each target).
Measurement Type: perc_inhibition (% inhibition of the binding of a ligand specific for each target) (%)

Test Smiles | Measured Number
CC(C)[C@H](Nc1ncnc2[nH]c(-c3cnn(C)c3C#N)cc12)c1ccc2c(n1)OCCO2 | 27
CC(C)[C@H](Nc1ncnc2[nH]ccc12)c1ccc2c(c1)S(=O)(=O)CCC2 | 6
CNCc1cc(-c2cc3c(N[C@@H](c4ccc5c(c4)S(=O)(=O)CCC5)C(C)C)ncnc3[nH]2)co1 | 13
CC(C)[C@@H](Nc1ncnc2[nH]c(-c3cnn(C)c3C#N)cc12)c1ccc2c(n1)OCCO2 | 20

---

# Experimental Details: Permeability Papp (AB) MDR1/MDCKII
# Condition Set: In vitro MDR1-MDCKII permeability, recovery A to B, mean
perc_recovery_a_to_b_mean below 90% gives rule not met; perc_recovery_a_to_b_mean at or above it gives rule met.

Molecule | Qualitative Label
CC(C)[C@H](Nc1ncnc2[nH]c(-c3cnn(C)c3C#N)cc12)c1ccc2c(c1)NC(=O)CO2 (racemic) [ASAP-0008576] | rule not met
CNC(=O)c1cc2c(N[C@@H](c3ccc4c(c3)S(=O)(=O)CCC4)C(C)C)ncnc2[nH]1 | rule met
CC(C)[C@@H](Nc1ncnc2[nH]cc(C(=O)NC3CC3)c12)c1ccc2c(c1)S(=O)(=O)CCC2 | rule not met
COCCNC(=O)c1c[nH]c2ncnc(N[C@H](c3ccc4c(c3)S(=O)(=O)CCC4)C(C)C)c12 (racemic) | rule not met
CNC(=O)c1cc2c(N[C@@H](c3ccc4c(c3)OCCO4)C(C)C)ncnc2[nH]1 | rule not met
CNC(=O)c1c[nH]c2ncnc(N[C@H](c3ccc4c(c3)NC(=O)CO4)C(C)C)c12 (racemic) | rule met
CNCc1cc(-c2cc3c(N[C@@H](c4ccc5c(c4)S(=O)(=O)NCC5)C(C)C)ncnc3[nH]2)co1 | rule not met
CC(C)C(Nc1ncnc2[nH]ccc12)c1ccc2c(c1)S(=O)(=O)CCC2 (stereo not shown) | rule not met
Cc1nn(C)cc1-c1cc2c(N[C@H](c3ccc4c(c3)S(=O)(=O)CCC4)C(C)C)ncnc2[nH]1 (single isomer, unassigned) | rule not met
CCNC(=O)c1cc2c(N[C@@H](c3ccc4c(c3)S(=O)(=O)NCC4)C(C)C)ncnc2[nH]1 | rule met

---

# Target Or System: KOR receptor (Homo sapiens, UniProt P41145)
# Construct: purchased Eurofins Cerep (SafetyScreen44), recognised from the panel format
# Sequence (P41145 whole entry): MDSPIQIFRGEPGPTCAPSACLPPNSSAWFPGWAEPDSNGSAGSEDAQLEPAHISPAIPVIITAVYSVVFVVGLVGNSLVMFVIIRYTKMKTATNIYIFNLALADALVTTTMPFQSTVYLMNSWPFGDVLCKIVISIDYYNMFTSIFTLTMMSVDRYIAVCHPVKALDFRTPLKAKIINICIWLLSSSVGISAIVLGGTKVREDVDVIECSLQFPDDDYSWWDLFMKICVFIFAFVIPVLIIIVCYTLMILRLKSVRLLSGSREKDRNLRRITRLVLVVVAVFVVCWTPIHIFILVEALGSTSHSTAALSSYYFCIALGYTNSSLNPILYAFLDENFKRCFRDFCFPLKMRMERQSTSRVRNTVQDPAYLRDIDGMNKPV
# Experimental Details: Eurofins CEREP panel, KOR
# Assay type: binding
# Condition Set: kappa (h) (KOP) (agonist radioligand); test compound concentration 10 uM
Measurement Type: perc_inhibition (% inhibition of the binding of a ligand specific for each target) (%)

Test Smiles | Measured Number
Cn1ncc(-c2cc3c(N[C@@H](c4ccc5c(n4)OCCO5)C(C)(C)C)ncnc3[nH]2)c1C#N | 33
CC(C)[C@H](Nc1ncnc2[nH]c(-c3cnn(C)c3C#N)cc12)c1ccc2c(n1)OCCO2 | 31
CNCc1cc(-c2cc3c(N[C@@H](c4ccc5c(c4)S(=O)(=O)CCC5)C(C)C)ncnc3[nH]2)co1 | 57
CC(C)[C@@H](Nc1ncnc2[nH]c(-c3cnn(C)c3C#N)cc12)c1ccc2c(n1)OCCO2 | 56

---

# Experimental Details: Permeability Papp (AB) MDR1/MDCKII
# Condition Set: MDR1-MDCKII, recovery B to A, with inhibitor Verapamil
# perc_recovery_b_to_a_inhibitor_mean listing for each entry below

Compound | perc_recovery_b_to_a_inhibitor_mean [%]
CC(C)[C@H](Nc1ncnc2[nH]c(-c3cnn(C)c3C#N)cc12)c1ccc2c(n1)NC(=O)CO2 (single isomer, unassigned) [ASAP-0011177] | 81.1
CC(C)[C@H](Nc1ncnc2[nH]c(-c3cnn(C)c3C#N)cc12)c1ccc2c(c1)S(=O)(=O)CCC2 (single isomer, unassigned) [ASAP-0011144] | 95.9
CC(C)[C@@H](Nc1ncnc2[nH]ccc12)c1ccc2c(c1)S(=O)(=O)CCC2 (single isomer, unassigned) [ASAP-0008676] | 89.1

---

# Experimental Details: in vitro
# Parameters: Cytotoxicity in iPSC-derived pneumocytes, CC50
# Condition Set: human, ipsc-derived pneumocytes; ASAP-0008327-001=ASAP-0012329-001; read-out: 50.0
Measurement Type: CC50

Molecule | Measurement Type | Result
CC(C)[C@@H](Nc1ncnc2[nH]c(-c3cnn(C)c3)cc12)c1ccc2c(c1)S(=O)(=O)CCC2 (single isomer, unassigned) | CC50 | > 50 µM

---

# Target Or System: UniProt P0DTD1
# Experimental Details: biochemical
# Format: biochemical
# Condition Set: SARS-CoV-2 nsp3 macrodomain TR-FRET single point; concentration 49.75 uM
Listed here: items and their measured perc_inhibition_mean.

Compound | perc_inhibition_mean / %
Cc1cc(C(=O)N2CCC(c3ccn4ncc(C(=O)N5CCCCC5)c4c3)CC2)[nH]n1 | 16.559
O=C1CCN(C(=O)c2cnn3ccc(C4CCN(C(=O)c5ccccc5)CC4)cc23)CCN1 | -2.402
O=C1CC[C@@H](CNC(=O)c2cnn3ccc(C4CCN(C(=O)c5ccccc5)CC4)cc23)N1 | -2.317
NC(=O)c1ncccc1C(=O)N1CCC(c2ccn3ncc(C(=O)N4CCCCC4)c3c2)CC1 | 19.978
Cc1cc(CNC(=O)c2cnn3ccc(C4CCN(C(=O)c5ccccc5)CC4)cc23)n(C)n1 | -5.508
COC[C@@H](Nc1ncnc2nc[nH]c12)c1ccc(C)o1 | -4.638
NC1(C(=O)N(CCC(=O)N2CCNCC2)Cc2cccc(Cl)c2)CC(F)(F)C1 | -3.48
O=C(CCN(Cc1cccc(Cl)c1)C(=O)c1ccc(O)cc1)N1CCNCC1 | -0.343
CN(C(=O)c1cnn2ccc(C3CCN(C(=O)c4ccccc4)CC3)cc12)c1ccccc1O | 10.02
CC(C)[C@@H]1[C@H](O)CCN1c1ncnc2[nH]ccc12 | 17.696
CC(C)[C@@H](Nc1ncnc2[nH]ccc12)C(=O)N(C)Cc1nnc2n1CCC2 | -8.89
Cn1cc([C@@H](Nc2ncnc3[nH]ccc23)C2CCC2)cn1 | 78.069
CC(C)[C@@H](Nc1ncnc2[nH]ccc12)c1nc2ccccc2[nH]1 | 37.305
Cc1nc(NC(=O)Cn2cnc3ccccc3c2=O)c2cc[nH]c2n1 | -4.067
Cc1ccc(C(=O)N(CCC(=O)N2CCNCC2)Cc2cccc(Cl)c2)[nH]1 | -5.904
CC(C)Cn1cc([C@H]2N(c3ncnc4[nH]ccc34)CC23CCOCC3)cn1 | -0.591
Cc1cc(N)ncc1C(=O)N1CCC(c2ccn3ncc(C(=O)N4CCCCC4)c3c2)CC1 | 19.535
Cc1nn(C)c(C)c1[C@H]1COCCN1c1ncnc2[nH]ccc12 | -0.137
Cc1ccc(C(=O)N2CCC(c3ccn4ncc(C(=O)N5CCCCC5)c4c3)CC2)c(=O)[nH]1 | 3.307
O=C(c1ccncc1)N1CCC(c2ccn3ncc(C(=O)N4CCCCC4)c3c2)CC1 | 10.851
CC(C)[C@@H](CCN(C)C(=O)c1cc2c(s1)CC[C@H](C)C2)Nc1ncnc2[nH]ccc12 | -9.684
O=C1CCC[C@@H](C(=O)N(CCC(=O)N2CCNCC2)Cc2cccc(Cl)c2)N1 | 2.418
O=C(Cc1ccns1)Nc1ncnc2[nH]cnc12 | -9.501
O=C(CCN(Cc1cccc(Cl)c1)C(=O)C1CCC(O)CC1)N1CCNCC1 (stereo not shown) | -4.315
CN(c1ncnc2[nH]ncc12)[C@@H](CCO)c1ccccc1 | 8.856
O=C(c1cc(O)ncn1)N1CCC(c2ccn3ncc(C(=O)N4CCCCC4)c3c2)CC1 | 19.125
O=C(c1ccc(O)nc1)N1CCC(c2ccn3ncc(C(=O)N4CCCCC4)c3c2)CC1 | 10.998
CC(C)[C@@H](Nc1ncnc2[nH]ccc12)c1nncn1C | 4.589
COc1cc(CC(=O)Nc2cc3c(=O)nc[nH]c3cn2)on1 | -4.691
O=C(NCCn1cncn1)c1cnn2ccc(C3CCN(C(=O)c4ccccc4)CC3)cc12 | -3.7
O=C(NC[C@@H]1CCCCN1)c1cnn2ccc(C3CCN(C(=O)c4ccccc4)CC3)cc12 | -5.92
CN1CCC[C@H](NC(=O)c2cnn3ccc(C4CCN(C(=O)c5ccccc5)CC4)cc23)C1 | -6.989
O=C(N[C@H](Cn1cnc2cc(F)c(F)cc21)C(=O)O)c1ncnc2[nH]ccc12 | -2.035
O=C(c1cnc2[nH]ncc2c1)N1CCC(c2ccn3ncc(C(=O)N4CCCCC4)c3c2)CC1 | 15.807

Just for reference, paper doi:10.1101/2024.08.19.608619 is where these values come from.
